REPORTED METRIC: melting point (°C)

- O=C1N=C(Nc2ccccc2)SC1=Cc1ccc([N+](=O)[O-])cc1 [Compound 6c]: 347

[1] O=C1N=C(Nc2cccc3ccccc23)SC1=Cc1ccc([N+](=O)[O-])cc1 [Compound 9c]
[2] C=CCNC1=NC(=O)C(=Cc2ccc([N+](=O)[O-])cc2)S1 [Compound 3c]
input: Among 1 and 2 , which shows a numerically higher melting point result? Write the label of whichever entry you select.
output: 2

----------
test: lipophilicity by RP-TLC with PCA; type: physicochemical; conditions: RP-TLC regression slope (specific hydrophobic surface area)
REPORTED METRIC: b

* O=C1N=C(Nc2ccccc2)SC1=Cc1csc(-c2ccccc2)n1 [Compound 6d] | −3.8092
* C=CCNC1=NC(=O)C(=Cc2ccc(O)cc2)S1 [Compound 3h] | −2.6897
* O=C1N=C(Nc2ccccc2)SC1=Cc1ccc(Cl)cc1Cl [Compound 6b] | −4.0118
* O=C1N=C(Nc2cccc3ccccc23)SC1=Cc1ccc([N+](=O)[O-])cc1 [Compound 9c] | −4.1555

[A] O=C1CSC(Nc2cccc3ccccc23)=N1 [Compound 8]
[B] C=CCNC1=NC(=O)CS1 [Compound 2, 2-(allylamino)thiazol-4(5H)-one]
[C] O=C1N=C(Nc2cccc3ccccc23)SC1=Cc1csc(-c2ccccc2)n1 [Compound 9d]
[D] C=CCNC1=NC(=O)C(=Cc2ccc(O)c(OC)c2)S1 [Compound 3g]
input: Order these by b, descending, and give the full ranking. State the ranking by listing the labels in the requested order.
output: B, D, A, C

----------
assay: lipophilicity by RP-TLC with PCA; assay type: physicochemical; set-up: key: PCA scores of compounds computed from Rf data; conditions: score of first principal component of Rf data; low P1 = highly lipophilic
REPORTED METRIC: P1

Check out these entries, answers already filled in.
- C=CCNC1=NC(=O)C(=Cc2coc3ccc(Cl)cc3c2=O)S1 [Compound 3e]: −0.349
- O=C1N=C(Nc2ccccc2)SC1=Cc1cccc(Cl)c1 [Compound 6a]: 0.485
- C=CCNC1=NC(=O)C(=Cc2ccc(O)cc2)S1 [Compound 3h]: 2.905

[1] O=C1N=C(Nc2ccccc2)SC1=Cc1ccc(Cl)cc1Cl [Compound 6b]
[2] O=C1CSC(Nc2cccc3ccccc23)=N1 [Compound 8]
input: Among 1 and 2 , which shows a numerically higher P1 result? Write the label of whichever entry you select.
output: 2

----------
The entries below come with measured MFC values attached.
system: Candida albicans ATCC 10231; assay: broth microdilution MIC/MFC; type: cell-based; details: ATCC10231, C. albicans ATCC 10231, read-out: MFC
Respond with the bare value in µg/mL.

Check out these entries, answers already filled in.
* C=CCNC1=NC(=O)C(=Cc2csc(-c3ccccc3)n2)S1 | 62.5
* O=C1N=C(Nc2cccc3ccccc23)SC1=Cc1cccc(Cl)c1 | 7.81
* C=CCNC1=NC(=O)C(=Cc2ccc(O)c(OC)c2)S1 | 1.95

input: Entry O=C1N=C(Nc2ccccc2)SC1=Cc1ccc(Cl)cc1Cl has what MFC?
output: 31.2

input: Entry C=CCNC1=NC(=O)C(=Cc2ccc(Cl)cc2Cl)S1 has what MFC?
output: 31.2

input: Entry O=C1N=C(Nc2ccccc2)SC1=Cc1ccc([N+](=O)[O-])cc1 has what MFC?
output: 1.95

input: Entry O=C1CSC(c2ccccc2)=N1 has what MFC?
output: 0.48
